Just for reference, patent US20250034136A1 is where these values come from.

The following compounds are listed with their measured EC50 values.
Tested on: p21 induction in HCT116 cells
ASSAY_NAME: p21 induction in HCT116 cells
Assay type: cell-based
CONDITION_NOTES: Homo sapiens, HCT-116, 24 h, HCT116 cells, 24 h compound incubation; read-out: P21_EC50

CCc1c(N2CCN(C(=O)c3ncnc(C)c3O)CC2)c(=O)c2nc(C=C(C)C)cnc2n1CC(=O)Nc1ccc(C(F)(F)F)cc1Cl | < 500 nM
CCc1c(N2CCN(C(=O)c3ncnc(C)c3O)CC2)c(=O)c2nc(Br)cnc2n1CC(=O)Nc1ccc(C(F)(F)F)cc1Cl | 2000 to 5000 nM
CCc1c(N2CCN(C(=O)c3ncnc(C)c3O)CC2)c(=O)c2nc(N3CCC[C@@H]3C)cnc2n1CC(=O)Nc1ccc(C(F)(F)F)cc1Cl | 500 to 2000 nM
CCc1c(N2CCN(C(=O)c3ncnc(C)c3O)CC2)c(=O)c2nc(C3CC3(F)F)cnc2n1CC(=O)Nc1ccc(C(F)(F)F)cc1Cl (stereo in doubt) | > 5000 nM

Requested field: EC50. Item: `CCc1c(N2C[C@H]3CC[C@@H](C2)N3C(=O)c2ncnc(C)c2O)c(=O)c2nc(N(C)C)cnc2n1CC(=O)Nc1ccc(C(F)(F)F)cc1Cl`
> 5000 nM

Try this compound next: `CCc1c(N2CCN(C(=O)c3ncnc(C)c3O)[C@H]3CC[C@@H]32)c(=O)c2nc(N3CCC4(COC4)C3)cnc2n1CC(=O)Nc1ccc(C(F)(F)F)cc1Cl`
< 500 nM

Entry `CCc1c(N2CCN(C(=O)c3ncnc(C)c3O)[C@H]3CC[C@@H]32)c(=O)c2nc(N3CCOCC3)cnc2n1CC(=O)Nc1ccc(C(F)(F)F)cc1Cl` please
< 500 nM

Quick one: CCc1c(N2CCN(C(=O)c3c(OC)ncc(C)c3O)C[C@@H]2C)c(=O)c2nc(N3CC[C@@H]4C[C@@H]43)cnc2n1CC(=O)Nc1ccc(C(F)(F)F)cc1Cl (single isomer, unassigned)
< 500 nM

What would you report for `CCc1c(N2CCN(C(=O)c3ncnc(C)c3O)CC2)c(=O)c2nc(C(C)(C)O)cnc2n1CC(=O)Nc1ccc(C(F)(F)F)cc1Cl` ?
> 5000 nM

`CCc1c(N2CCN(C(=O)c3ncnc(C)c3O)CC2)c(=O)c2nc(C(F)F)cnc2n1CC(=O)Nc1ccc(C(F)(F)F)cc1Cl` ?
> 5000 nM

Entry to check: CCc1c(N2CCN(C(=O)c3c(OC)ncc(C4CCOC4)c3O)[C@H]3CC[C@@H]32)c(=O)c2nc(N(C)C)cnc2n1CC(=O)Nc1ccc(C(F)(F)F)cc1Cl (stereo partly drawn)
< 500 nM

`CCc1c(N2CCN(C(=O)c3ncnc(C)c3O)CC2)c(=O)c2nc(/C=C/COC)cnc2n1CC(=O)Nc1ccc(C(F)(F)F)cc1Cl` ?
500 to 2000 nM

Now try `CCc1c(N2CCN(C(=O)c3ncnc(C)c3O)CC2)c(=O)c2nc(N(C)C3CC3)cnc2n1CC(=O)Nc1ccc(C(F)(F)F)cc1Cl` .
< 500 nM

Can you handle `CCc1c(N2CCN(C(=O)c3ncnc(C)c3O)CC2)c(=O)c2nc(N3CCC[C@H]3C(C)(C)O)cnc2n1CC(=O)Nc1ccc(C(F)(F)F)cc1Cl` next?
2000 to 5000 nM

Please do the same for CCc1c(N2CCN(C(=O)c3ncnc(C)c3O)CC2)c(=O)c2nc(N(C)C3CC(OC)C3)cnc2n1CC(=O)Nc1ccc(C(F)(F)F)cc1Cl (stereo not drawn) as well.
500 to 2000 nM

Likewise for `CCc1c(N2CCN(C(=O)c3ncnc(C)c3O)C[C@@H]2C)c(=O)c2nc(N(C)C)cnc2n1CC(=O)Nc1ccc(C(F)(F)F)cc1Cl` ?
< 500 nM

Another compound to check: `CCc1c(N2CCN(C(=O)c3ncnc(C)c3O)[C@H]3CC[C@@H]32)c(=O)c2nc(N3CC[C@@H](O)C3)cnc2n1CC(=O)Nc1ccc(C(F)(F)F)cc1Cl`
500 to 2000 nM

Try this compound next: `CCc1c(N2CCN(C(=O)c3ncnc(C)c3O)[C@H]3CC[C@@H]32)c(=O)c2nc(C)cnc2n1CC(=O)Nc1ccc(C(F)(F)F)cc1Cl`
< 500 nM

// same read-out, input: CCc1c(N2CCN(C(=O)c3ncnc(C)c3O)[C@H]3CC[C@@H]32)c(=O)c2nc(N3CC[C@@H]4C[C@@H]43)cnc2n1CC(=O)Nc1ccc(C(F)(F)F)cc1Cl (single isomer, unassigned)
< 500 nM

For `CCc1c(N2CCN(C(=O)c3ncnc(C)c3O)CC2)c(=O)c2nc(NCC3CC3)cnc2n1CC(=O)Nc1ccc(C(F)(F)F)cc1Cl` then?
2000 to 5000 nM

What about this compound? `CCc1c(N2CCN(C(=O)c3ncnc(C)c3O)C[C@@H]2C)c(=O)c2nc(N3CCC3)cnc2n1CC(=O)Nc1ccc(S(F)(F)(F)(F)F)cc1Cl`
< 500 nM

Next: `C/C=C/c1cnc2c(n1)c(=O)c(N1CCN(C(=O)c3ncnc(C)c3O)CC1)c(CC)n2CC(=O)Nc1ccc(C(F)(F)F)cc1Cl`
500 to 2000 nM

Next record, please: `CCc1c(N2CCN(C(=O)c3ncnc(C)c3O)CC2)c(=O)c2nc(N3CC(C)(O)C3)cnc2n1CC(=O)Nc1ccc(C(F)(F)F)cc1Cl`
> 5000 nM

Would you mind doing `CCc1c(N2CCN(C(=O)c3ncnc(C)c3O)[C@H]3CC[C@@H]32)c(=O)c2nc(N(C)C)cnc2n1CC(=O)Nc1ccc(C(F)F)cc1Cl` as well?
< 500 nM

====

Test system: p21 induction in HCT116 cells
ASSAY_NAME: p21 induction in HCT116 cells
Type: cell-based
CONDITION_NOTES: Homo sapiens, HCT-116, 24 h, HCT116 cells, 24 h compound incubation; read-out: P21_EC50
pEC50: −log10 of the molar value.
Measured pEC50 of individual entries

Consider the worked cases shown below.
CCc1c(N2CCN(C(=O)c3ncnc(C)c3O)[C@H]3CC[C@@H]32)c(=O)c2nc(C3=CCOCC3)cnc2n1CC(=O)Nc1ccc(C(F)(F)F)cc1Cl | > 6.30
CCc1c(N2CCN(C(=O)c3ncnc(C)c3O)[C@H]3CC[C@@H]32)c(=O)c2nc(-c3cncs3)cnc2n1CC(=O)Nc1ccc(C(F)(F)F)cc1Cl | > 6.30
CCc1c(N2CCN(C(=O)c3ncnc(C)c3O)CC2)c(=O)c2nc(N3CCNCC3)cnc2n1CC(=O)Nc1ccc(C(F)(F)F)cc1Cl | < 5.30
CCc1c(C2=CCN(C(=O)c3ncnc(C)c3O)CC2)c(=O)c2nc(N(C)C)cnc2n1CC(=O)Nc1ccc(C(F)(F)F)cc1Cl | 5.70 to 6.30
CCc1c(N2CCN(C(=O)c3ncnc(C)c3O)CC2)c(=O)c2nc(N3CCCC3=O)cnc2n1CC(=O)Nc1ccc(C(F)(F)F)cc1Cl | < 5.30

Suppose we examine the compound `CCc1c(N2CCN(C(=O)c3ncnc(C)c3O)CC2)c(=O)c2nc(N3CCn4nccc43)cnc2n1CC(=O)Nc1ccc(C(F)(F)F)cc1Cl` ; what pEC50 value has been reported?
< 5.30

====

TARGET_UNDER_TEST: WRN (BV08), human Werner helicase (Uniprot Q14191, amino acids 517-1235 with L1074F point mutation) (Homo sapiens (Human), UniProt Q14191, L1074F)
Sequence (Q14191 other isoform, or with tags, fused parts or gaps L1074F (already in the parent)): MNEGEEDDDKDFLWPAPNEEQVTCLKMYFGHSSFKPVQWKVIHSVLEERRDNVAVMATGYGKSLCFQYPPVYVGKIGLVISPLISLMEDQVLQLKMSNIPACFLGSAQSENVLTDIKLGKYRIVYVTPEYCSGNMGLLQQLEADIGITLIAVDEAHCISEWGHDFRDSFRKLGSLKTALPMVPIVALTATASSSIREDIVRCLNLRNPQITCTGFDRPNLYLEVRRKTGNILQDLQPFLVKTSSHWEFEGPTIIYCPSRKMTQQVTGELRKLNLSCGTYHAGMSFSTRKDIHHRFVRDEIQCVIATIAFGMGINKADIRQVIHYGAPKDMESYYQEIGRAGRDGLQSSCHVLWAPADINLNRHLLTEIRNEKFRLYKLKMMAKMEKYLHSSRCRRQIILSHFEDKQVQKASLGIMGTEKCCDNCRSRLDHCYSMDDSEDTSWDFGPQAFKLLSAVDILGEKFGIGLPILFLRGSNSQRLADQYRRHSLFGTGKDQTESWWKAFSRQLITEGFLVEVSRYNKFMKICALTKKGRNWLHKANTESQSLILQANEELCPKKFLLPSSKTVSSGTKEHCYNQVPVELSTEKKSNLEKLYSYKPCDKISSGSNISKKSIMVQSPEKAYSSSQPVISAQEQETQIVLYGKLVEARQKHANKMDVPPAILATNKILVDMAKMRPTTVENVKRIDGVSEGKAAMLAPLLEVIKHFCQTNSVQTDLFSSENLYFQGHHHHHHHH
ASSAY_NAME: WRN (BV08) ADP-Glo assay
CONDITION_NOTES: class symbols A-E, read-out: ADP-Glo_hWRN_IC50
pIC50: −log10 of the molar value.
This section presents compounds with their documented pIC50 values.

What does the record list as pIC50 for CCc1c(N2CCN(C(=O)c3ncnc(C)c3O)CC2)c(=O)c2nc(N(C)CC)cnc2n1CC(=O)Nc1ccc(C(F)(F)F)cc1Cl [I-74] ?
7.30 to 8.30

Here is the next compound: CCc1c(N2CCN(C(=O)c3ncnc(C)c3O)C[C@@H]2C)c(=O)c2nc(N(C)C)cnc2n1CC(=O)Nc1ccc(C(F)(F)F)cc1Cl [I-98]
7.30 to 8.30

// next record CCc1c(N2CCN(C(=O)c3c(OC)ncc(C)c3O)C[C@@H]2C)c(=O)c2nc(N3CC[C@@H]4C[C@@H]43)cnc2n1CC(=O)Nc1ccc(C(F)(F)F)cc1Cl (single isomer, unassigned) [I-232]
7.30 to 8.30

====

Test system: p21 induction in HCT116 cells
ASSAY_NAME: p21 induction in HCT116 cells
Type: cell-based
CONDITION_NOTES: Homo sapiens, HCT-116, 24 h, HCT116 cells, 24 h compound incubation; read-out: P21_EC50
pEC50: −log10 of the molar value.
Listed here: items and their measured pEC50.

Observe how each entry below is paired with its result.
CCc1c(N2CCN(C(=O)c3ncnc(C)c3O)CC2)c(=O)c2nc(N3CCC4(COC4)C3)cnc2n1CC(=O)Nc1ccc(C(F)(F)F)cc1Cl [I-163] | < 5.30
CCc1c(N2CCN(C(=O)c3c(OC)ncc(C(F)F)c3O)[C@H]3CC[C@@H]32)c(=O)c2nc(N(C)C)cnc2n1CC(=O)Nc1ccc(C(F)(F)F)cc1Cl [I-280] | < 5.30
CCc1c(N2CCN(C(=O)c3ncnc(C)c3O)CC2)c(=O)c2nc(C=C3CCOCC3)cnc2n1CC(=O)Nc1ccc(C(F)(F)F)cc1Cl [I-36] | 5.30 to 5.70

Please find the next molecule below.
Data request, read-out pEC50, for CCc1c(N2CCN(C(=O)c3ncnc(C)c3O)CC2)c(=O)c2nc(C=C3CCCC3)cnc2n1CC(=O)Nc1ccc(C(F)(F)F)cc1Cl [I-166]
5.70 to 6.30
